Procedure Details: soluble on expression in E. coli; label from the status in PepcDB or PDB records
Experimental Endpoint: soluble on expression in E. coli

ordered_residues=MVVNTHRVPSVDVLLDVITERIGLINGAKKLYTTSGTLVKDINKIKDGQNYVASSSHFTPAAYGGQHQPIQKEVKLKKKKKKRSQTVQPRKTEHIELGDEISIPLNEPVVLEKKKKKKKKLVQKNLDLHGSIETLAETAEIELPSEIEDSEEEDEHEHRRSATPDHHRPATKHSVAPSRASSRRGSRRDEEKREEEDEERKKKDEKKRKSVSSSRRKSQAQHHGQPNWGDLSSFTKNIESLLKN experimental_endpoint="soluble on expression in E. coli" reported_result="not soluble"
ordered_residues=MAHHHHHHMQLLHAQQEGMKNIRQSEASHSDENDKKERGTRSGSTTGTCSEFDVCAVYDDDDVPLAAQFVRSCPPLTDPSWAMEELLRINSHVAVWTGSALPNSVWALPGSGHCPFGSTDADFARIR experimental_endpoint="soluble on expression in E. coli" reported_result="not soluble"
ordered_residues=MGSDKIHHHHHHMSIEAYDQLAIFAVVARERSFTRAAARLGMSQPALSRAMRQLEERLGIRLLARTTRSVSATEAGEHLLRVVAPRFEEIDTELALLSQFRDKPAGRLRITAGEHPAVTILQPALAKILPDHPDIRVEVIVDYGLTDIVAEGYDAGVRLGEQIAKDMIAVRIGPEVRMAVVGSPDYFARHPRPRTPRDLIRHNCIAIRLPTYGGIFPWEFEKKGEELKVRVEGQLVFNNIAMRLDAALRGLGLTYMPEDLVKAHVREGVLVRVLSDWCPPIPGYHLYYPSRRQSSPAFTVLRDALRYLG experimental_endpoint="soluble on expression in E. coli" reported_result="not soluble"

###

Procedure Details: soluble on expression in E. coli; label from the status in PepcDB or PDB records
Experimental Endpoint: soluble on expression in E. coli

Worked set:
ordered_residues=EEKYVTVQPYTSQSKDEIGFEKGVTVEVIRKNLEGWWYIRYLGKEGWAPASYLKKAKD reported_result=soluble
ordered_residues=MGSDKIHHHHHHMLFYLPVTGQNTAVYPDQFGAYFNNMHLVTPSYFPKDVKVNLSLSYKSRTGALNKISTFNVAFTRVFNHTKPTNHLIRIYFYNEKDGPYIHRPRAYINYGYKIALSKQVNIAAGAAFGFAQTAFTAPSSTANGNSISPDASIGLSLQVKNFEAGFSVCQLLNSEVNPVVAPIIYRRYYNTYLSYHADLSPFIKLKSGMLWRALPTYDDDLNIYSMLEYKETISFGGCYRYNKNFSFVVSTNIHIGKESILLSFVYNTPFFTKLPAWTDSVELNGGYNFY reported_result="not soluble"
ordered_residues=EVQLQQSGPELVKPGASVKISCKASGYSFTGHLLNWVKQSHGKNLEWIGLVHPHNGAITYNQKFKDKATLTVDRSSTTAYIELVRLTSNDSAVYYCAREDFRYHYSMDYWGQGTSVTVSSAKTTPPSVYPLAPVCGDTTGSSVTLGCLVKGYFPEPVTLTWNSGSLSSGVHTFPAVLQSDLYTLSSSVTVTSSTWPSQSVTCNVAHPASSTKVDKKIVPK reported_result=soluble
ordered_residues=MGSDKIHHHHHHMAITIQNHELQVTLKALGATMTSITDSQGVEYLWQGDATYWGGQAPILFPICGSVRNDCVIYRPAQAPHFTGIIPRHGFVRHKTFDYDYISDSSVRFTIKSSKEMLINYPYRFSLEITYTLRNKSIAITYIVKNLESEKNMPYAIGAHPGFNCPLFEKEVFSDYYLEFEQFETCTIPESFPDTGLLDLQARHPFLENQKQLSLNHALFEKDAITLDQLRSKTVYLKSRNHAKGIQLDFDDFENLILWTSNNGGPFLALEPWSSLSTSIEESDILEDKQNIVRLNPKQSKQHSIRITIL reported_result="not soluble"
ordered_residues=MAHHHHHHMKPLAPFVCRLPSRRILRVRGTDAHDFLQGIFTNDLRELHPAGSMYGCFLYFTGRVLCDAHLYQCKQVHEGQASILVDVHERSATELLDHLTEMKMRKKVHIDDVGKELVVLAALEETSADAQRSRDSASGCDARESSVTSLSPETLEERHTECFLDPRNDALFPRPPPPSSSSPPAAVTSPSFCLRKCVVPATWAPPLSSPDSYTTLLYSRGIGEGPDVFKCNKSLPFEGNLDFLKGVSFHKGCYVGQELTHRTHVMLVTRKRTVPLHFGPANVDPPAAGIITDEGAVTKTWPVEVGEPLYSAAREKIGEVTGVCGQVGIGLFRLRYVDKATHTVPGLQLKDGTPVQTHLPDWWPRKDVKKLLQNNS reported_result=soluble
ordered_residues=SLSELMGKRVLIIDDNLTSQKILINQAQSWGMFTCAVDSGEKALEWLKRGITFDVAILDMNLPDMNGLELVREIRKQPNCTRLPLIMLSAITETEKTFQSSEEEFVAVLCKPVQRSQLYNVLMEIFSEIPRAPIRVTEG reported_result=soluble
ordered_residues=MSLTDKMQSLALAPVGNLDSYIRAANAWPMLSADEERALAEKLHYHGDLEAAKTLILSHLRFVVHIARNYAGYGLPQADLIQEGNIGLMKAVRRFNPEVGVRLVSFAVHWIKAEIHEYVLRNWRIVKVATTKAQRKLFFNLRKTKQRLGWFNQDEVEMVARELGVTSKDVREMESRMAAQDMTFDLSSDDDSDSQPMAPVLYLQDKSSNFADGIEDDNWEEQAANRLTDAMHGLDERSQDIIRARWLDEDNKSTLQELADRYGVSAERVRQLEKNAMKKLRAAIEAEGHHHHHH reported_result=soluble
ordered_residues=MKIFVCEDDQRQREHMVSIIKNYIMIEEKPMELALATNDPYEVLEQSKELNDIGCYFLDIQLEADMNGIKLASEIRKHDPVGNIIFVTSHSELTYLTFVYKVAAMDFIFKDDPSELKMRIIDCLETAHTRLKLLSKESNVDTIELKRGSNSVYVQYDDIMFFESSTKSHRLIAHLDNRQIEFYGNLKELAQLDERFFRCHNSFVINRHNIESIDSKERIVYFKNGENCFASVRNVKKI reported_result="not soluble"
ordered_residues=CSKNRKAKAKPVTRGTGAGSRPRGQNKERPPPVPNPDYEPIRKGQRDLYSGLNQRAV reported_result=soluble
ordered_residues=MGSDKIHHHHHHMKILILRFSSIGDIVLTTPVIRCLKKQIPNAEIHFATKASFKSILENNPYIDKLHLLESSTASFIKQLKAERFDVVIDLHSNIRTKRIKWALKAKSFTFDKLNIRKWFYVNWKWKTMPAIHIVDRYLDTVKHLGVKNDNEGLDYFIPEKDIISRDSLPQKYAAGYVAIAIGAQHATKRLPEAKLIELIGKISHPIILLGGKDDTATAARLVAYFPDTKNILNACGTYNLNQSASIVHQCMYLYTHDTGLMHIGAALQKRIISIWGNTTPELGMYAYKTEHVNWQKEDLYCRPCSKIGYNSCPKKHFRCMNEQVLPVHEIESRWN reported_result="not soluble"

// returns reported soluble on expression in E. coli for input "GPGSMKRHGVRLRRSIKETAVTIGCDEAGRGPLAGPVVGAAVSRIPVSSFNNEFDQLYEAPEQFQIFDSKSVSERQRDLVFAMITGHVDFFDIASCKKFVVHHCAGDEATSLTLSSKKLDSHVKLSKLPFKKLLSMQTPYLITYHGYNSAGNYVYFWSIGIANHTYIDEYNIYNASMNTMHRSAQSIWHMLSDARFSHEAAPRPRSSSIAQYLFSRFCTAANHDNEKRYQVPHHLELLKGATEYFDFEPIQPPLVLIDGHAVPGPSYDYFTSVRIGGDVQPIIEGDKRSLSIAAASCLAKVTRDELMNYIDALYPGYGFRDNKGYPVEQHMKYVAKNGLCPIHRKTYRPCRTVLEKGLQRK"
not soluble

Consider next the sequence "MSLGDRFYDLISALHKSVRGSAPDAALYWYARILTAGGDPLYVARRLLAIASEDVGNADPRAMQVALAAWDCFSRVGAYEGERAIAQAIIYLSVAPKSNAVYTAFNTAKQQAKDLPDYDVPPHLRNAPTNLMKELGYGTEYRYAHDEPNAYAAGENYFPPELKDTQYYFPTNRGMEIQIKEKLERLREQDKSTEGHHHHHH" in the same way.
soluble

###

Procedure Details: soluble on expression in E. coli; label from the status in PepcDB or PDB records
Experimental Endpoint: soluble on expression in E. coli

ordered_residues=MATALNPGRTSAPTPEAAPKLRFDARRYLGTPAVRRIKDEVEIELADRAYLPDLNDLKRDWVASVAAPAFRVLARNRATPPRAFASIGTGSGVDALAAIELLGAEIVGITDLFEEVVATAARNVRGNVRPEAGITLHAGAGDLLIPLAPAGVKFDVIYENLPNLPVDDSRKIEADKTSAAFLAPRSEAIPVFITDWLLTMHYLALVQARDALTPDGVVLSTVGARVPLDVLAQMSRAAGLVPRVLTYGWKVQADADDVISTYANWERQGLGPFRFYAADALEAAFANLDPGEAGANAATIEASLAGEQLGAVAAWEAHRSGLRIGHTYVVLQSGLGLEHHHHHH experimental_endpoint="soluble on expression in E. coli" reported_result=soluble
ordered_residues=RYSHSLGVYELLRRILNTPAFAPIDENKKQTVLVAGLLHDIGHAPHSHAFEIYFAKAPNFKKELFIHEEVTTLFVNSEPIKSILKANQIDPKLVAALIDENKELKPSNYWMRQLISSDLDADRMDYLLRD experimental_endpoint="soluble on expression in E. coli" reported_result="not soluble"
ordered_residues=MGSDKIHHHHHHMVWRDAEGQVHALEDRCPHRGARLSLGWNLGDRVACWYHGVEVRADGVVADVPAVHECPMTGTKCLKSYPVIEQHGAIFIWFGIDANEQPAPLEFPEQLASEEWSSFLCQADWKVNHQYAIDNVMDPMHGTYLHCTSHSMAEGERTAEMKHRTTENGFVFEKEGQTGVNFDWVEYGSTGASWLRLSIPYRKQFGPGGEFWIVGYATPIDANNTRVFFWRCRKVSGWQRNVWRFLYRNHLEQLHWDVLEQDRIILENLAPNARAREFLYQHDVGLARLRRLMKKEAEKQLKKIAALNASNRIEMQEEAHG experimental_endpoint="soluble on expression in E. coli" reported_result="not soluble"
ordered_residues=MAHHHHHHMAVASKGRIADVNQEELTKIGPKIDDVLSICLASFDSLRDMAFKFQYEQAAEKAAYQSGETKPDPMTQLMHVLQRMVDLTLGTAKAVYDQTLLEWRRRKGEGDADSPASQLASSQSMTSPEVLRNSSVEDFAAGSVAWIERGSHLSLLSLEVLSSVLLAHHYLRRDLQKYMLDVNVLDYLEKVFSMERDHELCYFPEGFKTECMRLIANLTHNNVDVNAALVERDTFLFNILSATQIDEENPGMVEWAEFALRNICESSAAAREKIRKLAPQGVTDQSREILAGRCSYSFSSTGKVQLHTQKPPLH experimental_endpoint="soluble on expression in E. coli" reported_result=soluble

Here is the next item to consider.
# query: soluble on expression in E. coli of entry "MAHHHHHHMSFKQVFLRDNEECQAFPWDALTHPSQSAGEERRTIHHHLAWPAVCEREEAVMGTQPARKVSELTSVSFFLQPPFAIPRRKTGRSSLGCRHDRPLYAAGSAGPRCGDKPTLFVGAAEADFCDDMGWRQRSNSPVSSVEHNAEDDGEDFDVEPVVLKRSLSEKDRRKRLHLSEMSARLCHAFAMKPFRLACGLGLDESDDGVGMENQSGWGAGEEAAVPLREKDDDDDTTPARQTAPISETQRGNTALNFTDNDLSVVRAIALALMEEGEKKRRQEMRRKTN"
not soluble
